Just for reference, paper PMC5454392 is where these values come from.

Recorded measurements of binding score, one per entry
Molecular target: T1, CaBdf1 BD1 (GST-tagged, wild-type) (Candida albicans (strain SC5314 / ATCC …, UniProt Q5A4W8))
T1 chain: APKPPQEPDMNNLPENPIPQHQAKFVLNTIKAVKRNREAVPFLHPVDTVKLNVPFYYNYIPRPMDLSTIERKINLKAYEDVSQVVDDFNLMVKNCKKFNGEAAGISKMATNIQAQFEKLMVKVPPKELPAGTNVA
Test: histone peptide array (Active Motif MODified), 1 uM GST-tagged bromodomain, anti-GST detection, normalized mean intensity
Ends that are not written are not given here.
QUANTITY_MEASURED: binding score

BINDER	REPORTED
ARTKQTARKSTGGKAPRKQ (A Rme2s T Kme3 Q T A R Kme1 S T G G K A P R K Q)	0.00471
ARTKQTARKSTGGKAPRKQ (A R T K Q T A Rme2s Kme3 pS T G G K A P R K Q)	0.00508
ARTKQTARKSTGGKAPRKQ (A R T K Q T A R K pS T G G K A P R K Q)	0.00181
PRKQLATKAAR(Me2s)KSAPATGG [H3 16-35]	0.00616
